tested on: CAL-85-1; experiment: normalised response (% of control), CellTiter-Glo; higher = more viable cells (100 = DMSO, 0 = benzethonium chloride kill control); conditions: incubation time: 72 h
Property: normalised response (%)
State the answer as a number, implicitly in %.

Below are worked cases with known answers.
| Compound | Subject of test | Property | Unit info | Recorded value |
| --- | --- | --- | --- | --- |
| CC(=O)N(O)CCCCCNC(=O)CCC(=O)N(O)CCCCCNC(=O)CCC(=O)N(O)CCCCCN [Deferoxamine] (10000 nM) | CAL-85-1 | normalised response | % | 78.8 |
| Cc1sc2c(c1C)C(c1ccc(Cl)cc1)=N[C@@H](CC(=O)OC(C)(C)C)c1nnc(C)n1-2 [(+)JQ1] (10000 nM) | CAL-85-1 | normalised response | % | 27.9 |
| Nc1nc2[nH]cnc2c(=S)[nH]1 [Thioguanine] (10000 nM) | CAL-85-1 | normalised response | % | 51.7 |
| COc1cc2c(cc1O)CC[C@@H]1[C@@H]2CC[C@]2(C)[C@@H](O)CC[C@@H]12 [2-methoxyestradiol] (10000 nM) | CAL-85-1 | normalised response | % | 33.3 |
| CC(=O)c1c(C)c2cnc(Nc3ccc(N4CCNCC4)cn3)nc2n(C2CCCC2)c1=O [Palbociclib] (10000 nM) | CAL-85-1 | normalised response | % | 70.4 |

Task: Write down the reported normalised response of COc1cc(F)c(F)c(Nc2ccc(I)cc2F)c1NS(=O)(=O)C1(C[C@H](O)CO)CC1 [Refametinib] (10000 nM) , test system: CAL-85-1.
Output: 23.8

Task: Request body: readout normalised response, system CAL-85-1, query CC(=O)O[C@@]12CO[C@@H]1C[C@H](O)[C@@]1(C)C(=O)[C@H](O)C3=C(C)[C@@H](OC(=O)[C@H](O)[C@@H](NC(=O)OC(C)(C)C)c4ccccc4)C[C@@](O)([C@@H](OC(=O)c4ccccc4)[C@H]21)C3(C)C [Docetaxel] (1000 nM) . Return the value.
Output: 28.9

====

tested on: BT-549; assay: normalised response (% of control), CellTiter-Glo; higher = more viable cells (100 = DMSO, 0 = benzethonium chloride kill control); conditions: incubation time: 72 h
Property: normalised response (%)
Answer format: numeric, % implied, no suffix.

| Compound | normalised response, % |
| --- | --- |
| COc1cc(F)c(F)c(Nc2ccc(I)cc2F)c1NS(=O)(=O)C1(C[C@H](O)CO)CC1 [Refametinib] (1000 nM) | 95.7 |

Task: Looking for the measured normalised response of Cn1cnc2c(F)c(Nc3ccc(Br)cc3Cl)c(C(=O)NOCCO)cc21 [Selumetinib] (1 nM) , can you help?
Output: 103

Task: Suppose we examine the compound COc1cc(F)c(F)c(Nc2ccc(I)cc2F)c1NS(=O)(=O)C1(C[C@H](O)CO)CC1 [Refametinib] (10 nM) ; what normalised response value has been reported?
Output: 96.5

Task: // query normalised response value for entry CC[C@@H]1C(=O)OC[C@@H]1Cc1cncn1C [Pilocarpine] (4 nM)
Output: 101

====

system: MCF-10A; experiment: normalised response (% of control), CellTiter-Glo; higher = more viable cells (100 = DMSO, 0 = benzethonium chloride kill control); conditions: incubation time: 72 h
Some compounds, each annotated with its measured normalised response.
Provide a numeric answer, followed by its unit.

| Compound | normalised response |
| --- | --- |
| CC(=O)c1c(C)c2cnc(Nc3ccc(N4CCNCC4)cn3)nc2n(C2CCCC2)c1=O [Palbociclib] (100 nM) | 85.8% |
| O=C1CN2Cc3c(ccc(Cl)c3Cl)N=C2N1 [Anagrelide] (100 nM) | 98.4% |
| C[C@]1(O)C[C@@H](c2nc(-c3ccc4ccc(-c5ccccc5)nc4c3)c3c(N)nccn32)C1 [Linsitinib] (100 nM) | 72.8% |
| CC(=O)O[C@@]12CO[C@@H]1C[C@H](O)[C@@]1(C)C(=O)[C@H](O)C3=C(C)[C@@H](OC(=O)[C@H](O)[C@@H](NC(=O)OC(C)(C)C)c4ccccc4)C[C@@](O)([C@@H](OC(=O)c4ccccc4)[C@H]21)C3(C)C [Docetaxel] (10 nM) | 46.2% |

Task: Report normalised response for COc1cc(F)c(F)c(Nc2ccc(I)cc2F)c1NS(=O)(=O)C1(C[C@H](O)CO)CC1 [Refametinib] (100 nM) please.
Output: 37.9%
